Tested on: DU-145 prostate
Experiment: NCI-60 one-dose screen, 48 h (100 = growth as untreated, 0 = no growth, -100 = all killed)
Conditions: 10 µM unless noted
Experimental: Cells are grown in 96 well plates and exposed to the test compound for 48 hours. Compounds are tested at a single concentration, which is 10^-5 M for most compounds. The reported endpoint is percent growth (GI% or GIPRCNT), where numbers from 0 - 100% represent growth inhibition, and numbers from -100% - 0 represent cell death. For example, a value of 40 represents 60% growth inhibition. A value of 0 means no net growth occurred over the course of the experiment. […]
The panel holds about 83,000 compounds, 20% with a hit somewhere; the sample as a whole holds those more often. Calls of active or inactive are those of the source. The calls were made as follows: active = growth percent below 10; inactive = the rest.

molecule	growth
CCCC(=O)NC(c1ccc2c(c1)OCO2)c1cc(Cl)c2cccnc2c1O (stereo not drawn)	53.7% (inactive)
COc1cc(/C=C2\C(=O)N(CCCOc3cc(O)c4c(=O)cc(-c5ccccc5)oc4c3)c3ccccc32)cc(OC)c1O	86.2% (inactive)
CCOC(=O)/C=C1\S/C(=N\Nc2cc(=O)[nH]c3ccc(Br)cc23)N(c2ccccc2)C1=O	85.2% (inactive)
C=C(C)[C@@H]1CC[C@]2(COC3CCCCO3)CC[C@]3(C)[C@H](CC[C@@H]4[C@@]5(C)C=C(C=O)C(=O)C(C)(C)[C@@H]5CC[C@]43C)[C@@H]12 (stereo partly drawn)	-94.3% (active)
O=c1oc2ccccc2cc1-c1nn(-c2ccccc2)cc1-c1nn[nH]n1	113% (inactive)
COc1ccc2c(c1)CC[C@@H]1[C@@H]2CC[C@]2(C)C3C(=CC(COC(C)=O)C4C(=O)N(c5ccc(Cl)cc5)C(=O)C43)C[C@@H]12 (stereo partly drawn)	106% (inactive)
CCOC(=O)C1=C(CCl)N(C)C(=O)NC1c1ccc2c(c1)OCO2 (stereo not drawn)	33.4% (inactive)
ClCCn1cnc2c(SCc3ccccc3)ncnc21	63.3% (inactive)

----------
Tested on: CCRF-CEM leukemia
Test: NCI-60 one-dose screen, 48 h
Conditions: 10 µM unless noted
Compounds without any hit were thinned out: in the full panel of roughly 83,000, 20% have a hit. Active and inactive are the calls of the source. How the source made its calls: active means growth percent below 10; inactive means the rest.
Possible outcomes: True = active, False = inactive

compound	class
O=C1C(Cl)=C(Nc2ccccc2)C(=O)c2ccccc21	True
O=C(NCCCCO)c1cncnc1Nc1ccc2c(ccn2Cc2cccc(F)c2)c1	False
Fc1ccc(/C=C/[C@@H]2C[C@@H](F)CCO2)cc1	False
CC1(C)N=C(N)N=C(N)N1c1ccc(S(=O)(=O)Nc2nccs2)cc1	False
CC(C)NS(=O)(=O)/N=C1\NC(=O)NC1=C(Cl)Cl	False
CSc1ccc2c3c(n(C[C@H](O)CO)c(=O)c2c1)-c1ccccc1C3=O	True
CCOc1ccc(/C=C/C(=O)c2cccc(OCCCOc3cccc(C(=O)/C=C/c4ccc(OCC)cc4)c3)c2)cc1	False
OC1(c2ccccc2)c2ccccc2N(c2ccccc2)c2ccc(Cl)cc21 (stereo not given)	True
C#Cc1cccc(NC(=O)C2CCCCN2C(=O)CCl)c1 (stereo not given)	True
O=C1/C(=C/c2ccccn2)SC(=S)N1N1CCOCC1	False
C[C@@H]1NC(=O)[C@H](Cc2ccccc2)N(Cc2cccnc2)C1=O	False
Cc1ccc(OCCOCCOCCOCCOCCOc2ccc(C)n(O)c2=S)c(=S)n1O	True
O=C(O)CCCCCCCCCCN1C(=O)/C(=C2/C(=O)N(CC(=O)O)c3ccc(Br)cc32)SC1=S	False
CCN(CCNc1ccc(C)c2sc3cc(Cl)ccc3c(=O)c12)CC(C)(C)O	False
Nc1nc(N(Cc2ccccc2)c2ccccc2)c2cn[nH]c2n1	False
